Reported concentration at 4 h is given for each of the following molecules.
# Assay notes: Plasma and liver concentration of the compound after 4 days of administration in the cholestasis rat induced by ANIT
# Format: in vivo, SD rats
# Run parameters: SD, plasma, oral, 3 mg/kg/day, 4 h, 3 mg/kg/d, read-out: Plasma concentration of the compound
Output spec: scalar in ng/mL, unitless text.

{"Smiles structure": "O=C(O)c1ccc(-c2nnc(N3[C@@H]4CC[C@H]3C[C@@H](OCc3c(-c5c(Cl)cccc5Cl)noc3C3CC3)C4)o2)cc1", "concentration at 4 h (ng/mL)": 130}

Problem: # lookup: concentration at 4 h of O=C(O)c1ccc(-c2nnc(N3[C@@H]4CC[C@H]3C[C@@H](OCc3c(-c5ccccc5OC(F)(F)F)noc3C3CC3)C4)o2)cc1
Solution: 278

Problem: # lookup: concentration at 4 h of Cc1cc(C(=O)O)ccc1-c1nnc(N2[C@@H]3CC[C@H]2C[C@@H](OCc2c(-c4c(Cl)cccc4Cl)noc2C2CC2)C3)o1
Solution: 172

Problem: # lookup: concentration at 4 h of O=C(O)c1ccc(-c2nnc(N3[C@@H]4CC[C@H]3C[C@@H](OCc3c(-c5c(Cl)cccc5Cl)noc3C3CC3)C4)o2)s1
Solution: 340

----------
# System: cholestasis rat induced by ANIT
# Assay notes: Efficacy on the cholestasis rat model induced by 1-naphthyl isothiocyanate (ANIT)
# Assay type: in vivo, SD rats
# Set-up: unit not given here
# Run parameters: serum, 3 mg/kg/d intragastric, 4 days, ANIT rat
Reported AST is given for each of the following compounds.
# output: bare number, no unit

Past entries and their recorded results:
{"Smiles structure": "Cc1cc(C(=O)O)ccc1-c1nnc(N2[C@@H]3CC[C@H]2C[C@@H](OCc2c(-c4c(Cl)cccc4Cl)noc2C2CC2)C3)o1", "AST": 643.3}
{"Smiles structure": "O=C(O)c1ccc(-c2nnc(N3[C@@H]4CC[C@H]3C[C@@H](OCc3c(-c5c(Cl)cccc5Cl)noc3C3CC3)C4)o2)cc1F", "AST": 314.2}
{"Smiles structure": "O=C(O)c1cccc(-c2nnc(N3[C@@H]4CC[C@H]3C[C@@H](OCc3c(-c5ccccc5OC(F)(F)F)noc3C3CC3)C4)o2)c1", "AST": 342.7}
{"Smiles structure": "O=C(O)c1ccc(-c2nnc(N3[C@@H]4CC[C@H]3C[C@@H](OCc3c(-c5ccccc5OC(F)(F)F)noc3C3CC3)C4)o2)cc1F", "AST": 187.7}
{"Smiles structure": "O=C(O)c1ccc(-c2nnc(N3[C@@H]4CC[C@H]3C[C@@H](OCc3c(-c5ccccc5OC(F)(F)F)noc3C3CC3)C4)o2)c(F)c1", "AST": 256.0}

Problem: # lookup: AST of O=C(O)c1ccc(-c2nnc(N3[C@@H]4CC[C@H]3C[C@@H](OCc3c(-c5c(Cl)cccc5Cl)noc3C3CC3)C4)o2)s1
Solution: 761.3

Problem: # lookup: AST of O=C(O)c1ccc(-c2nnc(N3[C@@H]4CC[C@H]3C[C@@H](OCc3c(-c5c(Cl)cccc5Cl)noc3C3CC3)C4)o2)cc1
Solution: 401.8

Problem: # lookup: AST of O=C(O)c1csc(-c2nnc(N3[C@@H]4CC[C@H]3C[C@@H](OCc3c(-c5c(Cl)cccc5Cl)noc3C3CC3)C4)o2)c1
Solution: 400.2

Problem: # lookup: AST of O=C(O)c1ccc(-c2nnc(N3[C@@H]4CC[C@H]3C[C@@H](OCc3c(-c5ccccc5OC(F)(F)F)noc3C3CC3)C4)o2)cc1
Solution: 324.8

----------
# Assay notes: Plasma and liver concentration of the compound after 4 days of administration in the cholestasis rat induced by ANIT
# Type: in vivo, SD rats
# Run parameters: SD, liver, oral, 3 mg/kg/day, 2 h, 3 mg/kg/d, read-out: Liver concentration of the compound
Value type: concentration at 2 h (ng/g)
Output spec: scalar in ng/g, unitless text.

Past entries and their recorded results:
{"Smiles structure": "O=C(O)c1ccc(-c2nnc(N3[C@@H]4CC[C@H]3C[C@@H](OCc3c(-c5c(Cl)cccc5Cl)noc3C3CC3)C4)o2)s1", "Unit abbreviation": "ng/g", "concentration at 2 h": 1590}
{"Smiles structure": "O=C(O)c1ccc(-c2nnc(N3[C@@H]4CC[C@H]3C[C@@H](OCc3c(-c5ccccc5OC(F)(F)F)noc3C3CC3)C4)o2)cc1", "Unit abbreviation": "ng/g", "concentration at 2 h": 3760}
{"Smiles structure": "Cc1cc(C(=O)O)ccc1-c1nnc(N2[C@@H]3CC[C@H]2C[C@@H](OCc2c(-c4c(Cl)cccc4Cl)noc2C2CC2)C3)o1", "Unit abbreviation": "ng/g", "concentration at 2 h": 1240}

Problem: # lookup: concentration at 2 h of O=C(O)c1ccc(-c2nnc(N3[C@@H]4CC[C@H]3C[C@@H](OCc3c(-c5c(Cl)cccc5Cl)noc3C3CC3)C4)o2)cc1
Solution: 752

----------
# System: cholestasis rat induced by ANIT
# Assay notes: Efficacy on the cholestasis rat model induced by 1-naphthyl isothiocyanate (ANIT)
# Type: in vivo, SD rats
# Design: unit not given here
# Run parameters: serum, 10 mg/kg/d intragastric, 4 days, ANIT rat
If the reported ALT equals or exceeds 50, assign true. If not, assign false.

See these solved cases before continuing.
{"Smiles structure": "Cc1cc(C(=O)O)ccc1-c1nnc(N2[C@@H]3CC[C@H]2C[C@@H](OCc2c(-c4c(Cl)cccc4Cl)noc2C2CC2)C3)o1", "Category label": "false"}
{"Smiles structure": "O=C(O)c1ccc(-c2nnc(N3[C@@H]4CC[C@H]3C[C@@H](OCc3c(-c5c(Cl)cccc5Cl)noc3C3CC3)C4)o2)s1", "Category label": "true"}
{"Smiles structure": "O=C(O)c1ccc(-c2nnc(N3[C@@H]4CC[C@H]3C[C@@H](OCc3c(-c5ccccc5OC(F)(F)F)noc3C3CC3)C4)o2)cc1", "Category label": "false"}

Moving on to another molecule below.
Problem: Confirm if ALT reported for the molecule O=C(O)c1cccc(-c2nnc(N3[C@@H]4CC[C@H]3C[C@@H](OCc3c(-c5ccccc5OC(F)(F)F)noc3C3CC3)C4)o2)c1 is 50 or above.
Solution: false

----------
# Test system: cholestasis rat induced by ANIT
# Assay notes: Efficacy on the cholestasis rat model induced by 1-naphthyl isothiocyanate (ANIT)
# Type: in vivo, SD rats
# Parameters: unit not given here
# Run parameters: serum, 10 mg/kg/d intragastric, 4 days, ANIT rat
Reported ALT is given for each of the following compounds.
# output: bare number, no unit

Problem: # lookup: ALT of O=C(O)c1ccc(-c2nnc(N3[C@@H]4CC[C@H]3C[C@@H](OCc3c(-c5c(Cl)cccc5Cl)noc3C3CC3)C4)o2)cc1
Solution: 79.9

Problem: # lookup: ALT of O=C(O)c1ccc(-c2nnc(N3[C@@H]4CC[C@H]3C[C@@H](OCc3c(-c5c(Cl)cccc5Cl)noc3C3CC3)C4)o2)cc1F
Solution: 54.7

Problem: # lookup: ALT of O=C(O)c1ccc(-c2nnc(N3[C@@H]4CC[C@H]3C[C@@H](OCc3c(-c5ccccc5OC(F)(F)F)noc3C3CC3)C4)o2)c(F)c1
Solution: 77.8

----------
Reported AST is given for each of the following molecules.
# Tested on: cholestasis rat induced by ANIT
# Assay notes: Efficacy on the cholestasis rat model induced by 1-naphthyl isothiocyanate (ANIT)
# Assay type: in vivo, SD rats
# Set-up: unit not given here
# Run parameters: serum, 10 mg/kg/d intragastric, 4 days, ANIT rat
# output: bare number, no unit

{"Smiles structure": "O=C(O)c1cccc(-c2nnc(N3[C@@H]4CC[C@H]3C[C@@H](OCc3c(-c5ccccc5OC(F)(F)F)noc3C3CC3)C4)o2)c1", "AST": 150.8}

Problem: # lookup: AST of O=C(O)c1csc(-c2nnc(N3[C@@H]4CC[C@H]3C[C@@H](OCc3c(-c5c(Cl)cccc5Cl)noc3C3CC3)C4)o2)c1
Solution: 139.8

Problem: # lookup: AST of O=C(O)c1ccc(-c2nnc(N3[C@@H]4CC[C@H]3C[C@@H](OCc3c(-c5ccccc5OC(F)(F)F)noc3C3CC3)C4)o2)cc1
Solution: 163.3

Problem: # lookup: AST of O=C(O)c1ccc(-c2nnc(N3[C@@H]4CC[C@H]3C[C@@H](OCc3c(-c5ccccc5OC(F)(F)F)noc3C3CC3)C4)o2)cc1F
Solution: 162.3

Problem: # lookup: AST of O=C(O)c1ccc(-c2nnc(N3[C@@H]4CC[C@H]3C[C@@H](OCc3c(-c5c(Cl)cccc5Cl)noc3C3CC3)C4)o2)cc1F
Solution: 139.3

Problem: # lookup: AST of O=C(O)c1ccc(-c2nnc(N3[C@@H]4CC[C@H]3C[C@@H](OCc3c(-c5c(Cl)cccc5Cl)noc3C3CC3)C4)o2)cc1
Solution: 243.5
